Tested on: WPMY1-GM130-SQSTM1
Test: phenotypically active (imaging signature differs from DMSO and reproducible) at any of 0.3-9 uM (binary (1 = active, 0 = inactive)); higher = active
Settings: treatment time: 24 h
Where a name gives a salt, the structure may show the parent alone.
MEASURED_METRIC: phenotypically active

Field: example entries. Status: answers known.
>  <COMPOUND>
Oc1cccc(Nc2ccnc3cc(-c4cccc(CN5CCOCC5)c4)sc23)c1 [LCB 03-0110 dihydrochloride]

>  <MEASURED_METRIC>
phenotypically active

>  <VALUE_MEASURED>
1 (active)

$$$$
>  <COMPOUND>
CCCN[C@H]1CCc2nc(N)sc2C1 [pramipexole]

>  <MEASURED_METRIC>
phenotypically active

>  <VALUE_MEASURED>
1 (active)

$$$$
>  <COMPOUND>
Cc1cc(CS(=O)(=O)c2ccccc2)cc(OCc2ccc(CN3CCC[C@@H]3CO)cc2)c1 [PF 543 hydrochloride]

>  <MEASURED_METRIC>
phenotypically active

>  <VALUE_MEASURED>
0 (inactive)

$$$$
>  <COMPOUND>
COc1ccc(C(=O)Nc2sc3c(c2C(N)=O)CCCC3)cc1OC

>  <MEASURED_METRIC>
phenotypically active

>  <VALUE_MEASURED>
0 (inactive)

$$$$
>  <COMPOUND>
COc1cc(C(=O)N2CCC(N3CCN(C)CC3)CC2)ccc1Nc1ncc2c(n1)N(C)c1ccccc1C(=O)N2C

>  <MEASURED_METRIC>
phenotypically active

>  <VALUE_MEASURED>
1 (active)

$$$$

// lookup phenotypically active for C#C[C@]1(OC(C)=O)CC[C@H]2[C@@H]3CCC4=CC(=NO)CC[C@@H]4[C@H]3CC[C@@]21CC [norgestimate] 0 (inactive)

// lookup phenotypically active for CC(=O)C1=C(O)[C@]2(C)C(=CC1=O)Oc1c(C(C)=O)c(O)c(C)c(O)c12 [(+)-Usnic acid] 0 (inactive)

// lookup phenotypically active for COc1cccc(-c2cc(F)ccc2[C@H]2Cc3nc(N)nc(C)c3C(=O)N2)n1 1 (active)
